Origin of values: paper PMC8953266

# SUBJECT_OF_TEST: transthyretin (wt-TTR) (Homo sapiens, UniProt P02766)
# Construct: recombinant wt-TTR, homotetramer
# PROTOCOL_DETAILS: ligand fluorescence titration (blue shift of OleA emission, fitted to a binding equilibrium); urea unfolding shows stabilization
TEST_READOUT: Kd (µM)
All answers are understood in µM, so give the number only.

// lookup Kd for C/C=C1/C(O)OC=C(C(=O)OC)[C@H]1CC(=O)OCCc1ccc(O)c(O)c1 (mixture of isomers)
3.23
